Reference source: patent US11142526B2

# System Tested: MAGL (Mus musculus (Mouse))
# Procedure Text: In vitro competitive activity-based protein profiling, mouse brain proteome
# Format: biochemical
# Test Settings: 1 uM; mouse
Each entry below carries its recorded inhibition at 1 µM.

Check out these entries, answers already filled in.
CC(C)(C)c1cc(CN2CCC3(CCN(C(=O)OC(C(F)(F)F)C(F)(F)F)CC3)C2)n(-c2ccccc2Cl)n1
> 75%
CC1(NC(=O)c2nnc3n2CCN(C2CC2)C3)CCN(C(=O)OC(C(F)(F)F)C(F)(F)F)CC1
> 75%
O=C(OC(C(F)(F)F)C(F)(F)F)N1CCC2(CCN(Cc3ccncn3)C2)CC1
> 75%
O=C(O)Cn1cc(Cl)c(C(=O)N2CCCC23CCN(C(=O)OC(C(F)(F)F)C(F)(F)F)CC3)n1
< 25%
O=C(OC(C(F)(F)F)C(F)(F)F)N1CCC2(CCCN2C(=O)c2cc(N3CCCC3)nc(Cl)n2)CC1
> 75%

The molecule `O=C(OC(C(F)(F)F)C(F)(F)F)N1CCC2(CCCN2Cc2cnc(N3CCNCC3)s2)CC1` showed inhibition at 1 µM equal to > 75%

Input `Cc1ncncc1C(=O)N1CCCC12CCN(C(=O)OC(C(F)(F)F)C(F)(F)F)CC2` . Output inhibition at 1 µM: < 25%

Lab note: `O=C(OC(C(F)(F)F)C(F)(F)F)N1CCC2(CCCN2C(=O)c2ccn(-c3ccc(Cl)cc3)n2)CC1` gave inhibition at 1 µM of > 75%

// recorded inhibition at 1 µM for `O=C(OC(C(F)(F)F)C(F)(F)F)N1CCC2(CCCN2C(=O)C2(c3cnc(C4CC4)nc3)CC2)CC1` : > 75%

inhibition at 1 µM recorded for this molecule, `O=C(OC(C(F)(F)F)C(F)(F)F)N1CCC2(CCCN2C(=O)c2cc3cc(Cl)c(Cl)cc3[nH]2)CC1` , is > 75%

Value of inhibition at 1 µM reported for the molecule `O=C(OC(C(F)(F)F)C(F)(F)F)N1CCC2(CCCN2Cc2ccc3cc(Cl)ccc3n2)CC1` is > 75%

In plain terms, `O=C(OC(C(F)(F)F)C(F)(F)F)N1CCC2(CCCN2C(=O)c2cc3cc(Cl)ccc3s2)CC1` has a documented inhibition at 1 µM of > 75%

---

MAGL (Mus musculus (Mouse)): recorded pIC50 for assorted compounds
pIC50: −log10 of the molar value.

Cc1cccc2cc(C(=O)N3CCCC34CCN(C(=O)OC(C(F)(F)F)C(F)(F)F)CC4)[nH]c12
> 7.00

Measured pIC50 of `Cc1c(C(=O)N2CCCC23CCN(C(=O)OC(C(F)(F)F)C(F)(F)F)CC3)[nH]c2ccc(F)cc12` : > 7.00

// sample `Cn1cc(C(=O)N2CCCC23CCN(C(=O)OC(C(F)(F)F)C(F)(F)F)CC3)cn1` , its pIC50 was 6.00 to 7.00

---

# System Tested: MAGL (Mus musculus (Mouse), UniProt O35678)
# Sequence (O35678 whole entry): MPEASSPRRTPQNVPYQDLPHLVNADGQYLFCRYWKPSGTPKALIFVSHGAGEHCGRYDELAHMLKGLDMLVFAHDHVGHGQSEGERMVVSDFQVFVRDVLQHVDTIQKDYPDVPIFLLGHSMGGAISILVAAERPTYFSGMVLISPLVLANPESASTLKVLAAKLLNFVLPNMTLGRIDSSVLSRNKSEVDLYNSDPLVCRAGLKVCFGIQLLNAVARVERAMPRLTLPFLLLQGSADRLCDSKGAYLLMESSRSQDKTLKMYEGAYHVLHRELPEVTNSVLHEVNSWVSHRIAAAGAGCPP
# Procedure Text: In vitro competitive activity-based protein profiling, mouse brain proteome
# Format: biochemical
# Test Settings: 1 uM; mouse
Recorded inhibition at 1 µM, one value per entry.

The examples below pair each entry with its known result.
O=C(OC(C(F)(F)F)C(F)(F)F)N1CCC2(CCCN2C(=O)c2cnn3ccccc23)CC1
> 75%
Cn1cc(C(=O)N2CCCC23CCN(C(=O)OC(C(F)(F)F)C(F)(F)F)CC3)cn1
> 75%
CN(C(=O)C1(c2ncccn2)CC1)C1(C)CCN(C(=O)OC(C(F)(F)F)C(F)(F)F)CC1
> 75%
O=C(OC(C(F)(F)F)C(F)(F)F)N1CCC2(CCCN2C(=O)C2(c3ncc(Cl)cn3)CC2)CC1
> 75%
CC(C)n1cc(CN2CCCC23CCN(C(=O)OC(C(F)(F)F)C(F)(F)F)CC3)c(-c2ccccc2F)n1
> 75%

Per the records, this compound ( `Cc1cccc2cc(C(=O)N3CCCC34CCN(C(=O)OC(C(F)(F)F)C(F)(F)F)CC4)[nH]c12` ) has inhibition at 1 µM equal to > 75%

Reported inhibition at 1 µM ( `CC(C)n1cc(CN2CCC3(CCN(C(=O)OC(C(F)(F)F)C(F)(F)F)CC3)C2)c(-c2cccc(C(=O)O)c2)n1` ) = 25 to 75%

---

# System Tested: MAGL (Mus musculus (Mouse))
# Procedure Text: In vitro competitive activity-based protein profiling, mouse brain proteome
# Format: biochemical
# Test Settings: 1 uM; mouse
Quantity Name: inhibition at 1 µM

Some solved entries appear below for comparison.
O=C(OC(C(F)(F)F)C(F)(F)F)N1CCC2(CCCN2Cc2csc(-c3ccccc3)n2)CC1 [Example 227]
> 75%
O=C(OC(C(F)(F)F)C(F)(F)F)N1CCC2(CCCN2C(=O)c2cn3nc(Cl)ccc3n2)CC1 [Example 163]
> 75%

Next item in the queue.
inhibition at 1 µM reading for COc1cnc(C(F)(F)C(=O)N(C)C2(C)CCN(C(=O)OC(C(F)(F)F)C(F)(F)F)CC2)cn1 [Example 199] : > 75%

---

As a worked illustration, we turn to pIC50 data collected for MAGL (Mus musculus (Mouse), UniProt O35678).
pIC50: −log10 of the molar value.

Take a look at these entries with their results.
O=C(OC(C(F)(F)F)C(F)(F)F)N1CCC2(CCCN2C(=O)c2ccc3nccn3c2)CC1
6.00 to 7.00
O=C(OC(C(F)(F)F)C(F)(F)F)N1CCC2(CCCN2C(=O)c2cnn(-c3ccc(Cl)cc3)c2)CC1
> 7.00

pIC50 reading for `O=C(OC(C(F)(F)F)C(F)(F)F)N1CCC2(CCCN2C(=O)c2cc3cc(C(F)(F)F)ccc3s2)CC1` : > 7.00

So, `O=C(OC(C(F)(F)F)C(F)(F)F)N1CCC2(CCCN2C(=O)c2ccc3ocnc3c2)CC1` ? Its pIC50 was > 7.00
